system: SK-OV-3 ovarian; assay: NCI-60 one-dose screen, 48 h (100 = growth as untreated, 0 = no growth, -100 = all killed); details: 10 µM unless noted
About 83,000 compounds went through this panel and 20% of them were active in at least one assay; those are over-represented in the sample as a whole. Activity calls are given as the source filed them. Rule for the calls: active = growth percent below 10; inactive = the rest.
measured.metric: growth

Known growth results, listed for orientation:
- compound: "COC(=O)c1nc(-c2ccccc2)oc1S(=O)(=O)N1CCN(c2ccc(OC)cc2)CC1"
  tested.target: "SK-OV-3 ovarian"
  growth: "104% (inactive)"
- compound: "CC/C(=C(/c1ccc(Cl)cc1)c1ccc(OCCN(CC)CC)cc1)c1ccc(OC)cc1"
  tested.target: "SK-OV-3 ovarian"
  growth: "89.8% (inactive)"
- compound: "CN(C)c1ccc(/C=C/C2=[N+](C)c3ccccc3C2(C)C)cc1"
  tested.target: "SK-OV-3 ovarian"
  growth: "4.03% (active)"
- compound: "O=C(Nc1cccc(Cl)c1)Oc1c(Cl)c(Cl)c(Cl)c(Cl)c1Cl"
  tested.target: "SK-OV-3 ovarian"
  growth: "85% (inactive)"
- compound: "O=c1c2cccc3c(N4CCOCC4)ccc(c32)c2nc3ccccc3n12"
  tested.target: "SK-OV-3 ovarian"
  growth: "91.4% (inactive)"

State the recorded growth for every item in the following list.
1. COC(=O)[C@@H](Cc1c[nH]c2ccccc12)NC[C@@H](O)CN1C(=O)/C(=C\c2cc(OC)c(OC)c(OC)c2)c2ccccc21
2. Cc1c(-c2cnc3ccc(Cl)cc3c2C(=O)O)nnn1-c1ccc(Cl)cc1

["98.6% (inactive)", "90.4% (inactive)"]

Required: growth, one value per compound below.
1. O=C1C=CC2(O)OC(c3ccccc3)CC(=O)C2=C1O (centres undefined)
2. C=C(C)[C@@H]1CCC[C@]2(C(=O)OC)CC[C@]3(C)[C@@H](CC[C@@H]4[C@@]5(C)CCCNC(C)(C)[C@@H]5CC[C@]43C)[C@@H]12

["106% (inactive)", "95.8% (inactive)"]
